Km values by entry
# Assay Procedure: Drug metabolism in monkey liver cytosol assessed as sulfate metabolite formation by Michaelis-Menten equation […]
# Assay type: ADME, Macaca mulatta
# Recorded Conditions: rhesus monkey
Give your result in µM as a bare value.

- Molecule: "Cc1cc2c(F)c(Oc3ncnn4cc(OC[C@@H](C)O)c(C)c34)ccc2[nH]1 [BRIVANIB]"
  Units Label: "µM"
  Km: 0.7

Kindly review the next molecule as well.
Request: Reported Km for Cc1cc2c(F)c(Oc3ncnn4cc(OC[C@H](C)O)c(C)c34)ccc2[nH]1 : what is it?
Result: 0.7

====

# Assay Procedure: Tmax in Sprague-Dawley rat plasma at 60 mg/kg, po administered as single dose via gavage by LC/MS analysis
# Type: ADME, organism-based
# Set-up: dose 60 mg/kg, route oral
Test Readout: Tmax (h)
Give your result in h as a bare value.

Request: Reported Tmax for Cc1cc2c(F)c(Oc3ncnn4cc(OC[C@@H](C)O)c(C)c34)ccc2[nH]1 [BRIVANIB] : what is it?
Result: 1
